B1: tRNA (parent)
chain: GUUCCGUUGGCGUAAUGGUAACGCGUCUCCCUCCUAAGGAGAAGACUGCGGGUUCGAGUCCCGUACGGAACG

variants of: B1; assay: yeast fitness, log relative to wild type (ln ratio); higher = fitter; tRNA-Arg(CCU), competitive growth, 37 C, 1 M NaCl
Rule: yeast fitness (ln) under -0.2 gives False, otherwise True.

Below, 5 variants whose answers are already recorded.
Could you please find out whether G1A U2C C27U A43C C66U A70U has yeast fitness (ln) that meets -0.2 or exceeds it?
True

Could you please find out whether U2C G6A C46U A69G A70G has yeast fitness (ln) that meets -0.2 or exceeds it?
True

Could you please find out whether U2G G6A C27U A43C C46U C66A C71U has yeast fitness (ln) that meets -0.2 or exceeds it?
False

Could you please find out whether G1A U2G G6U A43C C46U A69G A70U C71U has yeast fitness (ln) that meets -0.2 or exceeds it?
False

Could you please find out whether U2G G6A A43C A70U C71U has yeast fitness (ln) that meets -0.2 or exceeds it?
True

# ---- query variant ----
Could you please find out whether G1A U2C C27U A43C C46U A69G A70U C71U has yeast fitness (ln) that meets -0.2 or exceeds it?
False
